ASSAY_EXPLANATION: hepatitis C replication reporter changes, two-sided – Huh7 cells, luciferase reporter, HCV replication inhibitor project, primary screen (AID 1109);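 also: huh7 hepatoma cells harbouring a luciferase neomycin HCV replicon reporter; luciferase luminescence as measure of HCV replicon replication; test concentration not given here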
CONDITION_SUMMARY: Huh7 HCV replicon luciferase reporter, 48 h; higher = more signal
z-score for assorted molecules
// print number alone

[
  {
    "SMILES_STR": "O=C(NCc1ccccc1)[C@@H]1c2ccccc2C(=O)N(Cc2cc(C(F)(F)F)cc(C(F)(F)F)c2)[C@H]1c1ccc(CO)cc1",
    "MEASURED_RESULT": 0.0626
  },
  {
    "SMILES_STR": "CCCCCCc1nc(-c2ccc(-c3ccc(Cl)c(Cl)c3)o2)cc2c1[Si](C(C)C)(C(C)C)OC2",
    "MEASURED_RESULT": -0.967
  },
  {
    "SMILES_STR": "COc1cc(CO)cc(I)c1O[C@H]1C=C(C(=O)NCCO)C[C@@H](NC2CCCCCC2)[C@@H]1O",
    "MEASURED_RESULT": -4.13
  }
]

CC(C)N1C(=O)c2ccccc2[C@](C)(C(=O)NCC(F)(F)F)[C@@H]1c1ccc(CO)cc1 has a reported z-score of 0.164

CC(C)N1C(=O)C[C@@](C(=O)NCCN2CCOCC2)(c2ccc([N+](=O)[O-])cc2)[C@H]1c1ccc(CO)cc1 has a reported z-score of 0.323

COCCCNC(=O)[C@@H]1c2ccccc2C(=O)N(Cc2ccc(OC(F)(F)F)cc2)[C@H]1c1ccc(CO)cc1 has a reported z-score of -0.223

====

ASSAY_EXPLANATION: small molecules captured by biotinylated probe aFGF10 – biochemical, small-molecule microarray, fluorescence 635/667, stem cell growth factor project, primary screen (AID 1071);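 also: score merges 667 nm spot intensity and signal to noise from triplicate slides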
CONDITION_SUMMARY: higher = more signal
composite z-score for assorted compounds
// print number alone

Examples with their reported composite z-score follow.
[
  {
    "COMPOUND": "O=C(NCC(O)CO)[C@@]1(CCS(=O)(=O)c2ccccc2)N=C(c2ccc(OCCCO)cc2)O[C@H]1c1ccccc1 (some centres undefined)",
    "MEASURED_RESULT": 0.223
  },
  {
    "COMPOUND": "CCCC[C@H]1C[C@@H]1[C@@H]1N(C(C)=O)[C@H](c2cccc(OC)c2)CC12CC2",
    "MEASURED_RESULT": 0.186
  },
  {
    "COMPOUND": "CC(C)C(O)C1C=CC2C(=O)NC(=O)C2N1Nc1ccccn1 (centres undefined)",
    "MEASURED_RESULT": 0.138
  }
]

O=C1N(CCS(=O)(=O)c2ccccc2)c2ccccc2C[C@]12N=C(c1ccc(OCCCO)cc1)O[C@@H]2c1ccccc1 has a reported composite z-score of -0.122

====

ASSAY_EXPLANATION: blood-stage malaria parasite viability loss – strain 3D7, DAPI fluorescence, 100 nL, primary screen (AID 1184);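 also: parasites grown inside human red blood cells in medium with human serum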
CONDITION_SUMMARY: P. falciparum 3D7 growth, 3 d, higher = more signal
z-score for assorted compounds

Examples with their reported z-score follow.
[
  {
    "COMPOUND": "O=C1OCCC=C[C@H]2OC34C=CCN(c5ccc6ccccc6c5)C(=O)[C@H]3N(CCO)C(=O)[C@@H]4C12 (stereo not given in full)",
    "z-score": -0.022
  },
  {
    "COMPOUND": "Cc1ccc(S[C@]2(C(=O)NC(C)C)CC(=O)N(C3CCCCC3)[C@@H]2c2ccc(CO)cc2I)cc1",
    "z-score": -1.31
  },
  {
    "COMPOUND": "C=C(CCCC)/C(=C/C[C@H](OC(=O)c1ccncc1)c1ccc(OCCO)cc1)c1cnc2ccccc2c1",
    "z-score": -2.94
  },
  {
    "COMPOUND": "[N-]=[N+]=Nc1ccccc1[C@@H]1OC(c2ccc(OCCCO)cc2)=N[C@]1(CCS(=O)(=O)c1ccccc1)C(=O)NCC(O)CO (stereo not given in full)",
    "z-score": -2.21
  },
  {
    "COMPOUND": "O=C1NC(=O)C2C1C=CC(C(O)c1ccc([N+](=O)[O-])cc1)N2Nc1ccccn1 (stereo not given)",
    "z-score": 1.21
  }
]

C=C(CCCC)C(=O)CC[C@H](OC(=O)c1ccccc1-c1ccccc1C(=O)O)c1ccc(OCCO)cc1 has a reported z-score of -3.08

CC(=O)NCCCC[C@@H]1NC(=O)[C@H]2C[C@@H](C(=O)NCCCCCCNC(=O)CS)[C@@H](c3cccc(OCCO)c3)N2C1=O has a reported z-score of 0.287

COC(=O)C(CC#Cc1ccc2c(c1)[C@]1(C(=O)N2)[C@H](c2ccccc2OCCO)N2[C@H](c3ccccc3)[C@H](c3ccccc3)OC(=O)[C@H]2[C@@H]1C(=O)N1CCc2cc(OC)c(OC)cc2C1)C(=O)OC has a reported z-score of -2.19

COCCOC(=O)N1C(=O)[C@@]2(c3cc(C#CCC(C(=O)OC)C(=O)OC)ccc31)[C@H](c1ccc(O)cc1)N1[C@H](c3ccccc3)[C@H](c3ccccc3)OC(=O)[C@H]1[C@@H]2C(=O)Nc1nc2ccccc2s1 has a reported z-score of -1.43

COCCOC(=O)N1C(=O)[C@@]2(c3cc(C#CCCO)ccc31)[C@H](c1ccc(OCCO)cc1)N1[C@H](c3ccccc3)[C@H](c3ccccc3)OC(=O)[C@H]1[C@@H]2C(=O)N1CCCCCCC1 has a reported z-score of -2.1

COCCCNC(=O)[C@@]1(CCC(=O)OC(C)(C)C)COC(c2ccc(OCCCO)cc2)=N1 has a reported z-score of -0.547

COC(=O)[C@@]1(Cc2ccc(F)cc2)[C@H]2c3cc(C(=O)N4CCCC4)n(Cc4ccccn4)c3C[C@H]2CN1C(=O)c1ccccc1 has a reported z-score of -1.68

C=CCC(OC(C)=O)[C@@H]1[C@@H](N(Cc2ccc(-c3cccc(C(F)(F)F)c3)o2)C(=O)c2ccc(-c3ccccc3)cc2)c2cc(OCCCO)ccc2N1C(=O)c1ccc2ccccc2c1 (stereo not given in full) has a reported z-score of -1.26

====

System: Wnt5a (protein binding on small-molecule microarray)
ASSAY_EXPLANATION: small molecules binding Wnt5a protein – biophysical, small-molecule microarray, 635/667 nm fluorescence, primary screen (AID 1142);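 also: fluorescence read at 667 nm with signal to noise per printed feature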
CONDITION_SUMMARY: 635 nm fluorescence, higher = more signal
composite z-score for assorted compounds

Examples with their reported composite z-score follow.
[
  {
    "COMPOUND": "CC(C)=CCCC=C(C)C(O)C1C=CC2C(=O)N(c3ccccc3)C(=O)C2N1Nc1ccc(C#N)cc1 (configuration not stated)",
    "ASSAY_SYSTEM": "Wnt5a (protein binding on small-molecule microarray)",
    "composite z-score": 0.218
  },
  {
    "COMPOUND": "COCCOC(=O)N1C(=O)[C@@]2(c3cc(C#CCC(C(=O)OC)C(=O)OC)ccc31)[C@H](C(=O)Nc1nc3ccccc3s1)[C@H]1C(=O)O[C@H](c3ccccc3)[C@H](c3ccccc3)N1[C@@H]2c1ccc(OCCO)cc1",
    "ASSAY_SYSTEM": "Wnt5a (protein binding on small-molecule microarray)",
    "composite z-score": 0.555
  },
  {
    "COMPOUND": "COc1ccc(NN2C(C(O)c3ccc(I)cc3)C=CC3C(=O)N(C4CCCCC4)C(=O)C32)cc1 (configuration not stated)",
    "ASSAY_SYSTEM": "Wnt5a (protein binding on small-molecule microarray)",
    "composite z-score": 0.404
  }
]

C#CCN1[C@@H](Cc2ccccc2)C(=O)O[C@H](Cc2ccccc2)[C@@H]1/C=C/C1CC1 has a reported composite z-score of -0.0041

C=CCC(OC(C)=O)[C@@H]1[C@@H](N(Cc2ccc(-c3ccccc3)cc2)C(=O)c2cccc3ccccc23)c2cc(OCCCO)ccc2N1C(=O)Cc1ccc(OC)cc1 (some centres not stated) has a reported composite z-score of 0.0948

N#Cc1ccc(NN2C(C(O)C3CC=CCC3)C=CC3C(=O)N(c4ccccc4)C(=O)C32)cc1 (configuration not stated) has a reported composite z-score of 0.223

CCCN1C(=O)[C@]2(CCC(=O)OC(C)(C)C)N=C(c3ccc(OCCCO)cc3)O[C@@H]2c2ccccc21 has a reported composite z-score of 0.456

====

ASSAY_EXPLANATION: binders from COS7 lysate, DM2A8 probe, primary screen, torsin A project, cell lysate, small-molecule microarray, fluorescence 635/667 (AID 1065)
CONDITION_SUMMARY: higher = more signal, COS7 lysate expressing mutant human TOR1A
PROPERTY_NAME: composite z-score
// print number alone

Examples with their reported composite z-score follow.
[
  {
    "MOLECULE": "COC(=O)C(CC#Cc1ccc2c(c1)[C@]1(C(=O)N2)[C@H](c2ccccc2OCCO)N2[C@H](c3ccccc3)[C@H](c3ccccc3)OC(=O)[C@H]2[C@@H]1C(=O)N1CCc2cc(OC)c(OC)cc2C1)C(=O)OC",
    "PROPERTY_NAME": "composite z-score",
    "MEASURED_RESULT": 0.179
  },
  {
    "MOLECULE": "CCOC(=O)C[C@H]1[C@H](OC(=O)c2ccccc2-c2ccccc2)[C@@H](NC(=O)C2CCCCC2)c2cc(OCCCO)ccc2N1C(=O)c1ccc2ccccc2n1",
    "PROPERTY_NAME": "composite z-score",
    "MEASURED_RESULT": 0.0817
  },
  {
    "MOLECULE": "COC(=O)C(CC#Cc1ccc2c(c1)[C@]1(C(=O)N2)[C@H](C(=O)N2CCc3cc(OC)c(OC)cc3C2)[C@H]2C(=O)O[C@H](c3ccccc3)[C@H](c3ccccc3)N2[C@@H]1c1ccccc1OCCO)C(=O)OC",
    "PROPERTY_NAME": "composite z-score",
    "MEASURED_RESULT": 1.03
  },
  {
    "MOLECULE": "NC(=O)NCC#Cc1ccc2c(c1)[C@]1(C(=O)N2)[C@H](c2ccc(OCCO)cc2)N2[C@H](c3ccccc3)[C@H](c3ccccc3)OC(=O)[C@H]2[C@@H]1C(=O)O",
    "PROPERTY_NAME": "composite z-score",
    "MEASURED_RESULT": 1.36
  },
  {
    "MOLECULE": "O=C1O[C@@H](c2ccccc2)[C@@H](c2ccccc2)N2[C@@H](c3ccc(OCCO)cc3)[C@]3(C(=O)Nc4ccc(C#CCCO)cc43)[C@@H](C(=O)O)[C@H]12",
    "PROPERTY_NAME": "composite z-score",
    "MEASURED_RESULT": 0.431
  },
  {
    "MOLECULE": "CO[C@H]1O[C@H](CO)[C@@H](OC(=O)Nc2ccccc2)[C@H](OC(=O)Nc2ccccc2)[C@H]1OC(=O)Nc1ccccc1",
    "PROPERTY_NAME": "composite z-score",
    "MEASURED_RESULT": 0.0396
  }
]

COc1ccc(C(O)C2C=CC3C(=O)N(C)C(=O)C3N2N(c2ccccc2)c2ccccc2)cc1 (stereo not drawn) has a reported composite z-score of 1.17

N#Cc1ccc(-c2cccc(=O)o2)cc1 has a reported composite z-score of 0.316

C=C(CCCC)/C(=C/C[C@H](OC(C)=O)c1cccc(OCCO)c1)c1cnc2ccccc2c1 has a reported composite z-score of -0.194

C=CCC(OC(C)=O)[C@@H]1[C@@H](N(Cc2cccc3ccccc23)C(=O)Cc2ccc(OC)cc2)c2cc(OCCCO)ccc2N1C(=O)Cc1ccc2ccccc2c1 (stereo partly drawn) has a reported composite z-score of -0.176

C=C(CCCC)/C(=C/C[C@H](OC(=O)c1ccncc1)c1cccc(OCCO)c1)c1cnc2ccccc2c1 has a reported composite z-score of 0.824

COC(=O)[C@@]1(Cc2ccc(OC)cc2)[C@H]2c3cc(C(=O)N4CCCC4)n(Cc4ccc(Cl)c(C(F)(F)F)c4)c3C[C@H]2CN1C(=O)c1ccccc1 has a reported composite z-score of 0.673
